pIC50: −log10 of the molar value.
Test system IGF1R (Homo sapiens), pIC50 listed for each of the compounds.
quantityName: pIC50

>>> measuredvalue("COc1cc(Nc2ncc(Br)c(Nc3ccc4nc(C5CC5)ccc4c3P(C)(C)=O)n2)c(C2CC2)cc1N1CCOCC1")
6.42
>>> measuredvalue("COc1cc(Nc2ncc(Br)c(Nc3ccc4nc(C5CC5)ccc4c3P(C)(C)=O)n2)cc(C)c1N1CCC(N2CCN(C)CC2)CC1")
7.24
>>> measuredvalue("CCc1cc(N2CCOCC2)c(OC)cc1Nc1ncc(Br)c(Nc2ccc3nc(C4CC4)ccc3c2P(C)(C)=O)n1")
6.72

----------
- measuredOn: Ba/F3 EGFR WT (Homo sapiens, UniProt P00533)
- Sequence (P00533 whole entry, change not shown): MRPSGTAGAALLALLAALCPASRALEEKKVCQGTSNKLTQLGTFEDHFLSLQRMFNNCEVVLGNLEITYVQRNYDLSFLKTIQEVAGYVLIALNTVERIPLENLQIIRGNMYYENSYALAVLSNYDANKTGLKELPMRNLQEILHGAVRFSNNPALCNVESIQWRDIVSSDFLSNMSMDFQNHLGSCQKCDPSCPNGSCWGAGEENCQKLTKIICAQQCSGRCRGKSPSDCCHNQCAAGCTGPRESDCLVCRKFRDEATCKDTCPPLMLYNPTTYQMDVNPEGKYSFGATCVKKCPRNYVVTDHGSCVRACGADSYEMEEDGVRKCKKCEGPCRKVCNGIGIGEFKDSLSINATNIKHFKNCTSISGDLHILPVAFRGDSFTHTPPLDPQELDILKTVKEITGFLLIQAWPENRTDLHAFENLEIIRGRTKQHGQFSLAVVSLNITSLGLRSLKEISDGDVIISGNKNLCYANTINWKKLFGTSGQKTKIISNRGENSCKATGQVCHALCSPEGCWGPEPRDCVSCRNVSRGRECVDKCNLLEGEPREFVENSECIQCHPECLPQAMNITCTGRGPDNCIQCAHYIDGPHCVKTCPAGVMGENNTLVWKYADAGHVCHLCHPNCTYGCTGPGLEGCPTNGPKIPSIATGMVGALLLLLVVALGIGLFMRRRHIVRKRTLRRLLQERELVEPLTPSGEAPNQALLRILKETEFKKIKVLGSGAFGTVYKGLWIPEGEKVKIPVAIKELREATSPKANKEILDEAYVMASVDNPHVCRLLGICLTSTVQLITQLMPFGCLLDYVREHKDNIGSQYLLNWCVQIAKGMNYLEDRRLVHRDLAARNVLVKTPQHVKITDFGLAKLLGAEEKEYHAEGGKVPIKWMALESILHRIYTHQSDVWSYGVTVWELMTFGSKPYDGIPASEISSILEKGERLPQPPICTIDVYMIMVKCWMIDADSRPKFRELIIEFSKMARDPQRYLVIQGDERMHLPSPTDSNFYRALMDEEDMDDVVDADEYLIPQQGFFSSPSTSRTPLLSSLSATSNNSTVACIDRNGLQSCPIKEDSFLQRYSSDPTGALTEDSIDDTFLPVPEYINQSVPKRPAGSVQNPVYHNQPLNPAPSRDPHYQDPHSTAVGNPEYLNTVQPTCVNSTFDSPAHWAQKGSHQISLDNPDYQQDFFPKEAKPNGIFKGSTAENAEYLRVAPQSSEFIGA
- test: Cell proliferation experiment (CellTiter Glo, 72 hours)
- Type: cell-based
- assaySetup: read-out: BaF3 EGFR WT IC50
Output Fulfilled for records whose GI50 is lower than 100 nM, Not fulfilled for records at or above 100 nM.

>>> qualitativelabel("COc1cc(N2CCC(N3CCOCC3)CC2)c(-c2cnn(C)c2)cc1Nc1ncc(Br)c(Nc2ccc3nc(C4CC4)ccc3c2P(C)(C)=O)n1")
"Fulfilled"
>>> qualitativelabel("COc1cc(Nc2ncc(Br)c(Nc3ccc4nc(C5CC5)ccc4c3P(C)(C)=O)n2)c(C)cc1N1CCC(N(C)C)CC1")
"Not fulfilled"
>>> qualitativelabel("COc1cc(N2CCC(N3CCN(C)CC3)CC2)c(C)cc1Nc1ncc(Br)c(Nc2ccc3nc(C(C)C)ccc3c2P(C)(C)=O)n1")
"Not fulfilled"
>>> qualitativelabel("COc1cc(N(C)CCN(C)C)c(-c2cnn(C)c2)cc1Nc1ncc(Br)c(Nc2ccc3nc(C4CC4)ccc3c2P(C)(C)=O)n1")
"Fulfilled"
>>> qualitativelabel("COc1cc(NCC2CCN(C)CC2)c(-c2cnn(C)c2)cc1Nc1ncc(Br)c(Nc2ccc3nc(C4CC4)ccc3c2P(C)(C)=O)n1")
"Not fulfilled"
>>> qualitativelabel("COc1cc(N2CCN(c3cnccn3)CC2)c(-c2cnn(C)c2)cc1Nc1ncc(Br)c(Nc2ccc3nc(C4CC4)ccc3c2P(C)(C)=O)n1")
"Not fulfilled"
>>> qualitativelabel("COc1cc(Nc2ncc(Br)c(Nc3ccc4nc(C5CC5)ccc4c3P(C)(C)=O)n2)c(C)cc1N1CCC(N2CCN(C)CC2)CC1")
"Not fulfilled"
>>> qualitativelabel("COc1cc(N2CCN(C)CC2)c(-c2cnn(C)c2)cc1Nc1ncc(Br)c(Nc2ccc3nc(C4CC4)ccc3c2P(C)(C)=O)n1")
"Fulfilled"
>>> qualitativelabel("COc1cc(Nc2ncc(Br)c(Nc3ccc4nc(C5CC5)ccc4c3P(C)(C)=O)n2)c(C2CC2)cc1N1CCC(N2CCN(C)CC2)CC1")
"Not fulfilled"
>>> qualitativelabel("COc1cc(N2CCN(c3ccncn3)CC2)c(-c2cnn(C)c2)cc1Nc1ncc(Br)c(Nc2ccc3nc(C4CC4)ccc3c2P(C)(C)=O)n1")
"Fulfilled"
>>> qualitativelabel("COc1cc(N2CCN(c3nccs3)CC2)c(-c2cnn(C)c2)cc1Nc1ncc(Br)c(Nc2ccc3nc(C4CC4)ccc3c2P(C)(C)=O)n1")
"Fulfilled"
>>> qualitativelabel("COc1cc(N2CCN(c3cccc(=O)n3C)CC2)c(-c2cnn(C)c2)cc1Nc1ncc(Br)c(Nc2ccc3nc(C4CC4)ccc3c2P(C)(C)=O)n1")
"Fulfilled"
>>> qualitativelabel("COc1cc(N2CCC(N3CCN(C)CC3)CC2)c(C)cc1Nc1ncc(Br)c(Nc2ccc3ncccc3c2P(C)(C)=O)n1")
"Not fulfilled"
>>> qualitativelabel("CCc1cc(N2CCOCC2)c(OC)cc1Nc1ncc(Br)c(Nc2ccc3nc(C4CC4)ccc3c2P(C)(C)=O)n1")
"Not fulfilled"
>>> qualitativelabel("COc1cc(N2CCC(N3CCN(C)CC3)CC2)c(-c2cnn(C)c2)cc1Nc1ncc(F)c(Nc2ccc3nc(C4CC4)ccc3c2P(C)(C)=O)n1")
"Fulfilled"
>>> qualitativelabel("CCc1cc(Nc2ncc(Br)c(Nc3ccc4nc(C5CC5)ccc4c3P(C)(C)=O)n2)c(OC)cc1N1CCN(C)CC1")
"Not fulfilled"
>>> qualitativelabel("C#Cc1ccc2c(P(C)(C)=O)c(Nc3nc(Nc4cc(C)c(N5CCC(N6CCN(C)CC6)CC5)cc4OC)ncc3Br)ccc2n1")
"Fulfilled"
>>> qualitativelabel("COc1cc(N2CCN(C)CC2)c(C#N)cc1Nc1ncc(Br)c(Nc2ccc3nc(C4CC4)ccc3c2P(C)(C)=O)n1")
"Not fulfilled"
>>> qualitativelabel("COc1cc(N2CCN(c3ccncc3)CC2)c(-c2cnn(C)n2)cc1Nc1ncc(Br)c(Nc2ccc3nc(C4CC4)ccc3c2P(C)(C)=O)n1")
"Fulfilled"
>>> qualitativelabel("COc1cc(N2CCN(C)CC2)c(C)cc1Nc1ncc(Br)c(Nc2ccc3nc(C4CC4)ccc3c2P(C)(C)=O)n1")
"Not fulfilled"
>>> qualitativelabel("CCCc1ccc2c(P(C)(C)=O)c(Nc3nc(Nc4cc(C)c(N5CCC(N6CCN(C)CC6)CC5)cc4OC)ncc3Br)ccc2n1")
"Not fulfilled"
>>> qualitativelabel("COc1cc(N2CCN(c3cccnc3)CC2)c(-c2cnn(C)c2)cc1Nc1ncc(Br)c(Nc2ccc3nc(C4CC4)ccc3c2P(C)(C)=O)n1")
"Fulfilled"
>>> qualitativelabel("COc1cc(N2CCN(c3cc(OC)c(Nc4ncc(Br)c(Nc5ccc6nc(C7CC7)ccc6c5P(C)(C)=O)n4)cc3-c3cnn(C)c3)CC2)ccn1")
"Fulfilled"
>>> qualitativelabel("COc1cc(N2CCN(c3cnc(N(C)C)cn3)CC2)c(-c2cnn(C)c2)cc1Nc1ncc(Br)c(Nc2ccc3nc(C4CC4)ccc3c2P(C)(C)=O)n1")
"Not fulfilled"

----------
- measuredOn: EGFR WT (Homo sapiens, UniProt P00533)
- Sequence (P00533 25-1210): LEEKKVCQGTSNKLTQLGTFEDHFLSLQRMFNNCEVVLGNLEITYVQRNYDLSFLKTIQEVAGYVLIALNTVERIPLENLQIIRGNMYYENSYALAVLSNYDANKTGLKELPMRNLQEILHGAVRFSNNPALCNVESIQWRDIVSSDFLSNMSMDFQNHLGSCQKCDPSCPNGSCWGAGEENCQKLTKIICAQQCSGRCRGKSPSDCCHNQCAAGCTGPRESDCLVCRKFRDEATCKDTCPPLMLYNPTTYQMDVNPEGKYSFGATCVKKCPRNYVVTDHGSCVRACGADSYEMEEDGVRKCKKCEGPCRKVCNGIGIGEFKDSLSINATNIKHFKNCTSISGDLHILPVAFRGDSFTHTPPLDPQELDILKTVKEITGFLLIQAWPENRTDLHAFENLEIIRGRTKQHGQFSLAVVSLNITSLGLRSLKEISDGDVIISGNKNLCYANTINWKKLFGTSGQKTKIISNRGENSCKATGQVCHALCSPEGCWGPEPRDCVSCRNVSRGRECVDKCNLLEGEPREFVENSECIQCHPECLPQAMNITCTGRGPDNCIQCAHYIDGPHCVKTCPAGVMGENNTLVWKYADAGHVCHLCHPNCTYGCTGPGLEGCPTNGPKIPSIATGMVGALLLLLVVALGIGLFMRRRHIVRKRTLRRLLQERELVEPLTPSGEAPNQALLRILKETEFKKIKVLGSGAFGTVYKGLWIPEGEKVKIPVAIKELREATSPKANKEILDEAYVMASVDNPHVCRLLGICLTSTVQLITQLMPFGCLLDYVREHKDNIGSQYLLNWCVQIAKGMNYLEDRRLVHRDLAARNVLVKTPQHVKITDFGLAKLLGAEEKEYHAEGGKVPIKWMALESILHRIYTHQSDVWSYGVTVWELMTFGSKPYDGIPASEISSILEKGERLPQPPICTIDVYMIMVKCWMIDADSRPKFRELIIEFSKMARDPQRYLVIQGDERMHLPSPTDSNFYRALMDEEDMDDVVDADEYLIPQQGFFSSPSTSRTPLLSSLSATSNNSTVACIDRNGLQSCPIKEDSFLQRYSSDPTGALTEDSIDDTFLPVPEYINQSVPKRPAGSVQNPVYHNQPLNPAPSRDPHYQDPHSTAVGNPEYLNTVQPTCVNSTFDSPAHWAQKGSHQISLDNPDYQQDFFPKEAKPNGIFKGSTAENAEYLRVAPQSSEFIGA
pIC50: −log10 of the molar value.
Note to self: values exactly at 8 are met. So pIC50 at or above 8 is met, below is not met.

>>> qualitativelabel("COc1cc(Nc2ncc(Br)c(Nc3ccc4nc(-c5cnn(C)c5)ccc4c3P(C)(C)=O)n2)c(C)cc1N1CCOCC1")
"not met"
>>> qualitativelabel("COc1cc(N2CCC(N3CCN(C)CC3)CC2)c(C)cc1Nc1ncc(Br)c(Nc2ccc3nc(C(C)C)ccc3c2P(C)(C)=O)n1")
"not met"
>>> qualitativelabel("COc1cc(N2CCC(N3CCN(C)CC3)CC2)c(C#N)cc1Nc1ncc(Br)c(Nc2ccc3nc(C4CC4)ccc3c2P(C)(C)=O)n1")
"not met"
>>> qualitativelabel("CCCc1ccc2c(P(C)(C)=O)c(Nc3nc(Nc4cc(C)c(N5CCC(N6CCN(C)CC6)CC5)cc4OC)ncc3Br)ccc2n1")
"not met"
>>> qualitativelabel("COc1cc(N2CCN(C3CCCC3)CC2)c(C)cc1Nc1ncc(Br)c(Nc2ccc3nc(C4CC4)ccc3c2P(C)(C)=O)n1 [Compound J-037]")
"not met"
>>> qualitativelabel("COc1cc(Nc2ncc(Br)c(Nc3ccc4nc(C5CC5)ccc4c3P(C)(C)=O)n2)c(C2CC2)cc1N1CCC(N2CCN(C)CC2)CC1")
"not met"
>>> qualitativelabel("COc1cc(N2CCOCC2)c(C#N)cc1Nc1ncc(Br)c(Nc2ccc3nc(C4CC4)ccc3c2P(C)(C)=O)n1")
"not met"
>>> qualitativelabel("COc1cc(-c2ccc(N3CCN(C)CC3)cc2)c(C)cc1Nc1ncc(Br)c(Nc2ccc3nc(C4CC4)ccc3c2P(C)(C)=O)n1")
"not met"
>>> qualitativelabel("CCc1ccc2c(P(C)(C)=O)c(Nc3nc(Nc4cc(C)c(N5CCC(N6CCN(C)CC6)CC5)cc4OC)ncc3Br)ccc2n1")
"not met"
>>> qualitativelabel("C#Cc1ccc2c(P(C)(C)=O)c(Nc3nc(Nc4cc(CC)c(N5CCC(N6CCN(C)CC6)CC5)cc4OC)ncc3Br)ccc2n1")
"met"
>>> qualitativelabel("COc1cc(N2CCC(N3CCN(C)CC3)CC2)c(C)cc1Nc1ncc(Br)c(Nc2ccc3nc(C4CC4)ccc3c2P(C)(C)=O)n1")
"not met"
>>> qualitativelabel("COc1cc(Nc2ncc(Br)c(Nc3ccc4nc(C5CC5)ccc4c3P(C)(C)=O)n2)cc(C)c1N1CCOCC1")
"not met"
>>> qualitativelabel("CCc1cc(Nc2ncc(Br)c(Nc3ccc4nccnc4c3P(C)(C)=O)n2)c(OC)cc1N1CCC(N2CCN(C)CC2)CC1 [Comparable example 1, reference compound]")
"met"

----------
- measuredOn: Ba/F3 EGFR WT (Homo sapiens)
- test: Cell proliferation experiment (CellTiter Glo, 72 hours)
- Type: cell-based
- assaySetup: read-out: BaF3 EGFR WT IC50
quantityName: GI50 (nM)

>>> measuredvalue("C#Cc1ccc2c(P(C)(C)=O)c(Nc3nc(Nc4cc(CC)c(N5CCC(N6CCN(C)CC6)CC5)cc4OC)ncc3Br)ccc2n1")
108
>>> measuredvalue("COc1cc(N2CCC(N3CCN(C)CC3)CC2)c(-c2ccn(C)c2)cc1Nc1ncc(Br)c(Nc2ccc3nc(C4CC4)ccc3c2P(C)(C)=O)n1")
14.6
>>> measuredvalue("COc1cc(N2CCC(N3CCN(C)CC3)CC2)c(OC)cc1Nc1ncc(Br)c(Nc2ccc3nc(C4CC4)ccc3c2P(C)(C)=O)n1")
144
